Values compiled from PubChem BioAssay AID2391.

Entries and their measured CPE inhibition follow.
Assay: inhibition of RSV-induced cytopathic effect – HEp-2 cells, primary 10 µM value included (AID 2391)
Settings: at 10 µM, stronger effect = higher value
In all, about 310,000 compounds went through this assay and about 410 (0.13%) were called active. Another 2% or so got no clear call; they are omitted. A selection follows. Entries with a potency or affinity are not part of this list.
# output: bare number, implied unit %

- COC(=O)C1=C(C)N(Cc2ccco2)C(=O)N[C@@H]1c1ccco1: 0.83

Entry CCCCNC(=O)CC1N=C2c3ccccc3N=C(SCC(=O)Nc3ccccc3OC)N2C1=O (stereo not given) : reported CPE inhibition = ?
8.13

Again, but for CCN1C(=O)N[C@@H](c2cccc(C(F)(F)F)c2)C(C(=O)OC)=C1C
-0.08

Again, but for COC(=O)C1=C(C)N(CC2CC2)C(=O)N[C@H]1c1ccc(Br)cc1
27

Again, but for COC(=O)C1=C(C)N(Cc2ccco2)C(=O)N[C@@H]1c1cccc(C(F)(F)F)c1
4.06
